B1: glmS ribozyme (parent)
chain: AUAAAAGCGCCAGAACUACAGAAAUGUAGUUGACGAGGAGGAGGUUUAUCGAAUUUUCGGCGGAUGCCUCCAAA

Variants of: B1
Test protocol: self-cleavage kobs at 10000 uM GlcN6P; higher = faster cleavage; RNA array
Conditions: with glucosamine-6-phosphate
Variants at the floor of the assay were thinned out.
Kindly return yes (1) if reported self-cleavage kobs at 10000 uM GlcN6P is no lower than 0.0007 s⁻¹; return no (0) if it is lower.

G7C C11G G37U C58U: no (0)
U30C U31G A33G U69G: no (0)
A6U U30G: no (0)
A15C C34A: no (0)
C11G C16G: no (0)
U31A A52G: yes (1)
U30A A42G: yes (1)
U31G U55A: yes (1)
G13A A15U: no (0)
A6C G35U A36C: no (0)
U31G U46A: no (0)
U49C G66A: no (0)
A6G G7A G43C: no (0)
U30C G40A U56A G62C: no (0)
U31C G32C G35A G59U G66U C71U: no (0)
G29C U45A C68G: no (0)
A14U A42C A64C: no (0)
U54A A64G: yes (1)
A48G C50A G63A: no (0)
C34U G51A U57G U69G: no (0)
G9U G13A U55G: no (0)
